// provenance: ChEMBL document CHEMBL1146988

# Tested on: Trichomonas vaginalis
# TEST_PROTOCOL: Antitrichomonas activity against Trichomonas vaginalis after 48 hrs
# Type: functional
This section presents compounds with their documented MLC values.

[
  {
    "COMPOUND": "Cl.Cl.Fc1ccc([C@@H]2CCNC[C@H]2COc2ccc3c(c2)OCO3)cc1.Fc1ccc([C@@H]2CCNC[C@H]2COc2ccc3c(c2)OCO3)cc1.O [PAROXETINE HYDROCHLORIDE]",
    "REPORTED_RELATION": ">",
    "MLC / %": 0.01
  },
  {
    "COMPOUND": "CN[C@H]1CC[C@@H](c2ccc(Cl)c(Cl)c2)c2ccccc21.Cl [SERTRALINE HYDROCHLORIDE]",
    "REPORTED_RELATION": "=",
    "MLC / %": 0.003
  },
  {
    "COMPOUND": "CNCCC(Oc1ccc(C(F)(F)F)cc1)c1ccccc1.Cl (stereo not given) [FLUOXETINE HYDROCHLORIDE]",
    "REPORTED_RELATION": "=",
    "MLC / %": 0.003
  },
  {
    "COMPOUND": "COCCCC/C(=N\\OCCN)c1ccc(C(F)(F)F)cc1.O=C(O)/C=C\\C(=O)O [FLUVOXAMINE MALEATE]",
    "REPORTED_RELATION": "=",
    "MLC / %": 0.005
  },
  {
    "COMPOUND": "CCCCCCCCCc1ccc(OCCOCCOCCOCCOCCOCCOCCOCCOCCO)cc1",
    "REPORTED_RELATION": "=",
    "MLC / %": 0.002
  }
]
